Recorded PBM binding z-score, one value per entry.
Test system: RARa:RXR (NR concentration 270 nM, RXRa partner concentration 90 nM)
ASSAY_NOTES: PBM binding z-score (relative to random genomic background probes); higher = stronger binding; sequences stand for … in GC…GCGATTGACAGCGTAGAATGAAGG
ASSAY_METRIC: PBM binding z-score

1. TTACCAAGGTGAAAGGTCGCTGATGCACGCCTTG	5.46
2. AGTCGAAGTTCACTAGGTAACGTAAGATTCAGCT	0.939
3. CCTACTGGACCAAAGGTCATTGATTCCAATGCTC	5.95
4. GGAACGAGGGCAAGTTGATAGGAGAGTTTGATGG	0.165
5. CCGACTGTGGCAAGGTTACCATAACGCACAGCCA	0.594
6. AGTACGAGGGCAATGAGTTGATAGCACGGGTGGC	0.221
7. TCATATAGTTAAACAGGTGAAAGTCCGTAAGTTA	1.2
8. CGTCCAAGTTCATAGGAGGTCAGTGAAGACAGAT	4.07
9. CATGCAGGGTCAGCTAGGCCAGAGTAGGGACGGC	3.27
10. ATCTCTAGGTAAAAGTTCAGTAAATCCCGAGGAT	1.47
11. GATACAGGGACAGCTAGAGGCCAGAGTATGGAAA	0.0222
12. AGAATGAGGTTAAGATCAGGTAAACAGAATACAT	2.3
13. CATAGCAGGCCAATCTGGGTCACTCAAGGCTTGA	1.25
14. CGTCCAAGGTCAGAGACGTCAGTGAATGCCGAGT	2.75
15. ATCTCTAGGTAAGACTCAGTCCAGTGAAGAACGC	-0.0301
16. AGTCAAAGTTCAGAACGAGGTAACGTAAAGCACG	2.94
17. GATACAGGGTCGAGGCCAGAGTACGCGTATTGAT	1.37
18. ATCTCTAGGTAAGACTCAGTTGAGTGAAGAACGC	-0.38
19. ATCTCTAGGTACCCAAGTTCAGTGAATGCCGAAC	0.698
20. CCAACTAGGTCAAGAGGTCAAAGTCCGCTTCCCG	8.12
21. ATCTCTACGTAACCAAGTTCAGTGAATGCCGAAC	0.427
22. CCTATTAGTTGACCATAAGGGCAGCCGAAGCTCG	0.385
23. AGTCAAAGTTCATGTAGGTAACGTAAGATATGCT	3.76
24. CCAGACAGGAGAAAGGTAACTCAGTCTGGTACGC	0.168
25. TCTAGCAGGCCAGAGGGTCACACAAGAGGTACGG	3.44
26. CAGCCTAGGTCAGGGCCAGTATGGGAGGAACGTT	0.839
27. TCTAGCAAGCCAGAGGGTCACTCAAGAGGTACGG	1.96
28. CCTGCTAGGTCAATGGTTAGCTAAAGCAGCTCGC	1.29
29. CGAACTAGGTCATTGATAGGACAGTGAATAGTAA	1.93
30. AATACTGGGTCACTAGGCCAGAGTAGGTACGAAT	1.53
31. CCGACTGGGGCATAAGGTTACGATAAGCCAGCCC	1.66
32. CCATACGGGTCACTCCAGGTTATAGCATCGGAGT	3.54
33. ATATGTAGGTTACATCCGGGTCACTCAGGCTATG	3.74
34. CCTCGGAGGACAACAGGAGGTCAGAGTTGCCAGA	2.64
35. TCTCGGAGGACACGAAGGTCTGAGCTTTCCAGAG	0.107
36. ACTTTTAGTTGAGACGAGGGCAACCGATAGGTTG	1.59
37. CCCTACGGGTCACTCCAGGTTATAGCATCGGAGT	3.75
38. AGCTCTAGGTAAGACTCAGTTCAGTGAAGAACGC	-0.0214
39. TCTGGTAGATCAGCAGGTTAAGAAAGCTGGCCAA	0.363
40. CCTGCTAGATCATGGTCAGCTAATCTACAGTATG	-0.328
41. TTACCAAGGTGAAGGACGTTGATCCCTCTGTAGA	0.474
42. CCTTTTAGTTGACCATAAGGGCAACCGAAGCTCG	0.957
43. ACTCGGAGGACCAAGGTCAGAGCTACGCCAGTGA	1.88
44. CCAGACAGGTGAGAGGTAACTCAGTCTGGTACGC	0.194
45. TCATAAAGGTAAATGCTAGGTGAAAGTCCGATCT	1.36
46. AATACAGGGTCACTAGGCCAGACTAGGTACGAAT	3.87
47. CCGACTGGGGCAGAAAGGTTACGATACCATCCGG	1.72
48. CCTTACGGGTCACTCCAGGTTATAGGATCGGAGT	4.1
49. CCTACTGGGCCATTCAGAGGTCCTTGATCATATG	-0.409
50. CCTAGCAGGCCAATCTGCGTCACTCAAGGCTTGA	-0.426
51. CTCGAAAGGCCGTGCTCAGGTGAGTATACCAAAC	-0.118
